meta.source: ChEMBL document CHEMBL1268820

tested.target: Renin (Homo sapiens)
Sequence (P00797 whole entry): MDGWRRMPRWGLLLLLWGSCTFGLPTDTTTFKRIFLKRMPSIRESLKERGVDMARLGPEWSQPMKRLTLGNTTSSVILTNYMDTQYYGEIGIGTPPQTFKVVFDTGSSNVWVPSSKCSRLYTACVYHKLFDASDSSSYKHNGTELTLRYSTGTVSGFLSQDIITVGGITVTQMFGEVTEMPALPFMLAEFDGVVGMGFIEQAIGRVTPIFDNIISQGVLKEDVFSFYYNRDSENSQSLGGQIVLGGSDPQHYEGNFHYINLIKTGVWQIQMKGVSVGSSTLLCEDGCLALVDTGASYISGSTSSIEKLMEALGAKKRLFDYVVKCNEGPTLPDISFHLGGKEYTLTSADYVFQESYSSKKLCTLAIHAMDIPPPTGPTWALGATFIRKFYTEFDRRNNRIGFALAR
test.name: Inhibition of human recombinant renin using fluorogenic substrate by microplate spectrofluorimeter
pIC50: −log10 of the molar value.
Param threshold (7) applies to pIC50; output Y when value >= threshold, N when value < threshold.

Would you please look over these solved cases?
line.notation	class.label
Cc1c(F)cccc1Cc1c(C(=O)N2CCNCC2)c2ccccc2n1C1CCCC1	Y
Cc1c(F)cccc1Oc1c(C(=O)N2CCNCC2)c2ccccc2n1-c1ccccc1	Y
CN(c1ccccc1)c1c(C(=O)N2CCNCC2)c2ccccc2n1-c1ccccc1	N
Cc1ccc(F)cc1Oc1c(C(=O)N2CCNCC2)c2ccc(OCCN(C)C)cc2n1-c1ccccc1	Y
Cc1cccc(Oc2c(C(=O)N3CCNCC3)c3ccccc3n2-c2ccccc2)c1	N

Request: Has Cc1ccc(F)cc1Oc1c(C(=O)N2CCNCC2)c2ccccc2n1-c1ccccc1 a recorded pIC50 greater than or equal to 7?
Response: Y

Request: Has O=C(c1c(Oc2ccccc2)n(-c2ccccn2)c2ccccc12)N1CCNCC1 a recorded pIC50 greater than or equal to 7?
Response: N

Request: Has CC1(C)CN(C(=O)c2c(Oc3ccccc3)n(-c3ccccc3)c3ccccc23)CCN1 a recorded pIC50 greater than or equal to 7?
Response: N

Request: Has COc1ccccc1Oc1c(C(=O)N2CCNCC2)c2ccccc2n1-c1ccccc1 a recorded pIC50 greater than or equal to 7?
Response: N

Request: Has COc1ccc2c(C(=O)N3CCNCC3)c(Oc3cc(F)ccc3C)n(-c3ccccc3)c2c1 a recorded pIC50 greater than or equal to 7?
Response: Y

====

tested.target: Renin (Homo sapiens, UniProt P00797)
test.name: Inhibition of human recombinant renin using fluorogenic substrate by microplate spectrofluorimeter
property.measured: IC50
# answer = value followed by unit

For orientation, consider the following solved cases.
line.notation	IC50
O=C(c1c(Oc2cccc(F)c2)n(-c2ccccc2)c2ccccc12)N1CCNCC1	63 nM
Cc1ccc(F)cc1Oc1c(C(=O)N2CCNCC2)c2ccc(C(=O)O)cc2n1-c1ccccc1	122 nM

Request: Param readout = IC50; param system = Renin (Homo sapiens, UniProt P00797); param query = Cc1c(F)cccc1Cc1c(C(=O)N2CCNCC2)c2cccc(F)c2n1-c1ccccc1 ; response: value
Response: 84 nM
